target_system: SMARCA4 (Homo sapiens, UniProt P51532)
Construct: endogenous in cells
Sequence (P51532 whole entry, species assumed): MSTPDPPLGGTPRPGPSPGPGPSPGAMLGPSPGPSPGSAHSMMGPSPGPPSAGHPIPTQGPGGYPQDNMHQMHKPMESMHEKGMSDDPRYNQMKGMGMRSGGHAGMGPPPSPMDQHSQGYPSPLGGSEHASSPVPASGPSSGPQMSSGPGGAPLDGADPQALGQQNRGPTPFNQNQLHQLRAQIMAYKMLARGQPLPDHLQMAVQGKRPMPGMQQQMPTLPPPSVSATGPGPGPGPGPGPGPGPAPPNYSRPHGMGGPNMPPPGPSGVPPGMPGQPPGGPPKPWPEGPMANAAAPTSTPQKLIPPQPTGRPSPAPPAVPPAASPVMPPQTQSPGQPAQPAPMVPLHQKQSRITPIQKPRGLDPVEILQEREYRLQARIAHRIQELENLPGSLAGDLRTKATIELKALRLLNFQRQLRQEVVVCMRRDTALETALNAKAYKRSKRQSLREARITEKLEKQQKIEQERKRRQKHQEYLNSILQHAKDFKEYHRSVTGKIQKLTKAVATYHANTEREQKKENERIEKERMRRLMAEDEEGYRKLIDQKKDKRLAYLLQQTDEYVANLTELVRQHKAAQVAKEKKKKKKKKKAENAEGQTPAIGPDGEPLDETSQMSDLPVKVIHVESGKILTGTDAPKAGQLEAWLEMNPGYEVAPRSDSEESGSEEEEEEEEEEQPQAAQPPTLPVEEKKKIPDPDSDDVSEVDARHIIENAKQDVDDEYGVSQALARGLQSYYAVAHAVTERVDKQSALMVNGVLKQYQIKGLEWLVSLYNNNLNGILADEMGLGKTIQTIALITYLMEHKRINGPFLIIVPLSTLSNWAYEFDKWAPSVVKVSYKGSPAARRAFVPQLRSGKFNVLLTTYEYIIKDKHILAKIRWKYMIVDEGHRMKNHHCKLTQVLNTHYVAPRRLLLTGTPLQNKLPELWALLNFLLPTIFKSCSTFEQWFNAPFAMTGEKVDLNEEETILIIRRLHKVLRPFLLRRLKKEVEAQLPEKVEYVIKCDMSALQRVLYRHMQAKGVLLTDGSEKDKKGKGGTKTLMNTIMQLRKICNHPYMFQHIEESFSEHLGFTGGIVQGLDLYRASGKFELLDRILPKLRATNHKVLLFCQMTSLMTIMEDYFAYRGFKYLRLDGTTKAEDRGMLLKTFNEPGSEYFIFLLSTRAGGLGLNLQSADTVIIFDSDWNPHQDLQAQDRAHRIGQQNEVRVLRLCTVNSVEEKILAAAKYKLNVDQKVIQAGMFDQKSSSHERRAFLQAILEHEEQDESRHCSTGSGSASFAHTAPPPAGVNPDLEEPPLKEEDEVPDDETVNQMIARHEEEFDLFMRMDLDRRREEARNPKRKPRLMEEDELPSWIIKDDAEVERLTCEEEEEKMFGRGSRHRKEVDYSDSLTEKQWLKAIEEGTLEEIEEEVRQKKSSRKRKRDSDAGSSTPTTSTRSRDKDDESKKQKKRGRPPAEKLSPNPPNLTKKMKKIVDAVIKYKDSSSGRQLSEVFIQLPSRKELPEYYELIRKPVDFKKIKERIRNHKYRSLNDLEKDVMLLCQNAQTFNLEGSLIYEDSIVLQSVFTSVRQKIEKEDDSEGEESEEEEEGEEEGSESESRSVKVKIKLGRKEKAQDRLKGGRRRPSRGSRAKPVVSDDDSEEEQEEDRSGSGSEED
procedure_text: Cellular degradation assay, SMARCA4 (Table 1)
Assay type: cell-based
readout_type: Dmax (%)

O=C1CC[C@H](c2ccc(N3CCC(CCN4CCC[C@@H]4C(=O)NCC4(c5ccccc5)CCN(c5cnnc(-c6ccccc6O)c5)CC4)CC3)cc2)C(=O)N1 (racemic) | 29.4

[1] Cn1ccc(C2(C(=O)N3CC4(CN(CC5CCN(c6ccc(C7CCC(=O)NC7=O)cc6)CC5)C4)C3)CCN(c3cnnc(-c4ccccc4O)c3)CC2)n1 (racemic)
[2] CN(C(=O)C1(OC2CC2)CCN(c2cnnc(-c3ccccc3O)c2)CC1)C1CCN(CCC2CCN(c3ccc(C4CCC(=O)NC4=O)cc3)CC2)CC1 (racemic)
[3] O=C1CC[C@H](c2ccc(N3CCC(CN4CC(F)(F)C5(C4)CN(C(=O)C4(c6ccccc6)CCN(c6cnnc(-c7ccccc7O)c6)CC4)C5)CC3)cc2)C(=O)N1
List items by Dmax in falling order. Reply format: the labels, ordered as requested. 1, 2, 3
(1: 56.8%, 2: 25.1%, 3: 13.7%)

[1] O=C1CCC(Nc2ccc(C3CCN(CCNC(=O)C4(c5ccccc5)CCN(c5cnnc(-c6ccccc6O)c5)CC4)CC3)cc2)C(=O)N1 (racemic)
[2] Cn1ccc(OC2(C(=O)N3CC4(CN(CCC5CCN(c6cccc7c6n(C)c(=O)n7C6CCC(=O)NC6=O)CC5)C4)C3)CCN(c3cnnc(-c4ccccc4O)c3)CC2)n1 (racemic)
[3] CN(C(=O)C1(c2cnn(C)c2)CCN(c2cnnc(-c3ccccc3O)c2)CC1)C1CCN(C2COC3(CCN(c4ccc([C@H]5CCC(=O)NC5=O)cc4)CC3)C2)CC1 (mixture of isomers)
Order the records by Dmax, with each subsequent value no larger than the one before. // rank by listing labels in the order requested 2, 1, 3
(2: 72.9%, 1: 48.5%, 3: 30.4%)
